# Tested on: XIP peptide (Xip251-270)
# method notes: small-molecule binders of XIP peptide, primary screen, biochemical, small-molecule microarray, fluorescence 635/667 nm, 0.5 µg/mL protein (AID 1183)
# measurement conditions: small-molecule microarray binding, fluorescence 635 nm; higher = more signal
reported property: composite z-score

1. CN(C)CCCNC(=O)[C@@H]1c2ccccc2C(=O)N(C2CCCCC2)[C@H]1c1ccc(CO)cc1; 0.834
2. CC(C)CCC[C@@H](C)[C@H]1CC[C@@]2(C)C3=C(CC[C@]12C)[C@@]1(C)CC[C@H](OC(=O)c2ccccc2)C(C)(C)C1CC3 (some centres not stated); 0.0627
3. C[C@]1(C(=O)NCC(F)(F)F)c2ccccc2C(=O)N(Cc2ccccc2)[C@H]1c1ccc(CO)cc1; -0.0904
4. O=C(CS)NCCCCCNC(=O)[C@@H]1C[C@@H]2C(=O)N[C@@H](Cc3ccccc3)C(=O)N2[C@@H]1c1cccc(OCCO)c1; 0.77
5. C=C(COC)/C(=C/C[C@H](OC(C)=O)c1cccc(OCCO)c1)c1cnc2ccccc2c1; 0.75
6. O=C1C[C@@](C(=O)NCc2ccccc2)(c2ccc([N+](=O)[O-])cc2)[C@@H](c2ccc(CO)cc2I)N1CC12CC3CC(CC(C3)C1)C2; 0.692
7. COCCCNC(=O)[C@@H]1c2ccccc2C(=O)N(C2Cc3ccccc3C2)[C@H]1c1ccc(CO)cc1; 0.583

Reference for the values: PubChem BioAssay
